Exercise: for every item that follows, state its recorded neutralization IC50, Vero cells.
Target: ZIKV envelope glycoprotein (E) of strain FLR (Colombia 2015) (Zika virus)
Test: cell-based or functional assay
Number only, in pM; omit the unit.

Exercise: Return reported neutralization IC50, Vero cells. Input binder: H4H25602P (antibody, V domains shown) VH: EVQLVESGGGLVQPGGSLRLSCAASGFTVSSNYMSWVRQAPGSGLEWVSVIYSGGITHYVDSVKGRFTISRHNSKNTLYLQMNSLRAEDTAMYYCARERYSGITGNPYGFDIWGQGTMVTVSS VL: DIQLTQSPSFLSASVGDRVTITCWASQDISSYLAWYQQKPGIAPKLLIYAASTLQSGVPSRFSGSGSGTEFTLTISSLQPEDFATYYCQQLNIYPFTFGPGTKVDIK
Key: 630

Exercise: Item H4H25619P (antibody, V domains shown) VH: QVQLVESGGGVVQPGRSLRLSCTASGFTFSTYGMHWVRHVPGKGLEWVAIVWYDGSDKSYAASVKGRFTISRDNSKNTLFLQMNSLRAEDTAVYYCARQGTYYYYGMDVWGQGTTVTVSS VL: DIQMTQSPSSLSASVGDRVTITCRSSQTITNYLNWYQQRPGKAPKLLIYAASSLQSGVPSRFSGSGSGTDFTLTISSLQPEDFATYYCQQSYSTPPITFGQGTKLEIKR : provide neutralization IC50, Vero cells
Key: 1260
